The values you see were collected from patent US7148249B2.

Collected IC50 values appear next to each entry.
Tested on: Human umbilical endothelial cells (HUVEC)
Test: Inhibition of VEGF165-stimulated HUVEC proliferation (3H-thymidine incorporation)
Assay type: cell-based
Conditions: Homo sapiens; HUVEC proliferation stimulated with 5 ng/ml VEGF165 and 10 μg/ml heparin; 76 h incubation + 16 h 3H-thymidine
Procedure: Human umbilical endothelial cells (HUVEC) were cultivated in IMDM (Gibco BRL), supplemented with 10% foetal calf serum (FBS) (Sigma), 50 μM of β-mercaptoethanol (Fluka), standard antibiotics, 15 μg/ml of endothelial cell growth factor (ECGS, Collaborative Biomedical Products) and 100 μg/ml of heparin (Sigma) on gelatine-coated culture dishes (0.2% gelatine, Sigma) at 37° C., under 5% CO2 in a water-saturated atmosphere. […]
Give your result in nM as a bare value.

COC(=O)c1ccc2c(c1)NC(=O)/C2=C(\Nc1ccc(N(C)C(=O)CN2CCN(C)CC2)cc1)c1ccc2c(c1)OCCO2; 0.2
CN1CCC(N(C)C(=O)c2ccc(N/C(=C3\C(=O)Nc4cc(F)ccc43)c3ccc4c(c3)OCCO4)cc2)CC1; 5
Cn1ccnc1-c1ccc(N/C(=C2\C(=O)Nc3cc(Cl)ccc32)c2ccc3nccnc3c2)cc1; 71
Cc1cc(C)n(-c2ccc(N/C(=C3\C(=O)Nc4cc(F)ccc43)c3ccc4c(c3)ncn4C)cc2)n1; 30
CN(C)C(=O)c1ccc(N/C(=C2\C(=O)Nc3cc(F)ccc32)c2ccc3c(c2)ncn3C)cc1; 14

In: Which value of IC50 has been reported for Cn1cnc2cc(/C(Nc3ccc(Cn4cncn4)cc3)=C3/C(=O)Nc4cc(F)ccc43)ccc21 [(e)] in the records?
Out: 16

In: Cool, now CN(C)Cc1ccc(N/C(=C2\C(=O)Nc3cc(Cl)ccc32)c2ccc3c(c2)OCCO3)cc1
Out: 9

In: Then what about the compound COC(=O)c1ccc2c(c1)NC(=O)/C2=C(\Nc1ccc(CN2CCCC2)cc1)c1ccc2c(c1)OCCO2 [(s)] ?
Out: 0.6

In: Then what about the compound CN(C)Cc1ccc(N/C(=C2\C(=O)Nc3ccccc32)c2ccc3c(c2)nnn3C)cc1 ?
Out: 94

In: Similarly, COC(=O)c1ccc2c(c1)NC(=O)/C2=C(\Nc1ccc(CN(C)C)cc1)c1ccc2c(c1)OCO2 ?
Out: 0.5

In: Subsequent entry: COC(=O)c1ccc2c(c1)NC(=O)/C2=C(\Nc1ccc(C(=O)N(C)CCCN(C)C)cc1)c1ccc2c(c1)OCCO2
Out: 0.5

In: Same question, CN(C)CCN(c1ccc(N/C(=C2\C(=O)Nc3cc(Cl)ccc32)c2ccc3c(c2)OCCO3)cc1)S(C)(=O)=O this time
Out: 3

In: Please answer likewise for CN(C)Cc1ccc(N/C(=C2\C(=O)Nc3ccccc32)c2ccc3c(c2)ncn3C)cc1
Out: 24

In: Next compound up: CN(C)Cc1ccc(N/C(=C2\C(=O)Nc3cc(Cl)ccc32)c2ccc3c(c2)ncn3C)cc1
Out: 2

In: Can you handle COC(=O)c1ccc2c(c1)NC(=O)/C2=C(\Nc1ccc(CN2CCN(C)CC2)cc1)c1ccc2c(c1)OCCO2 next?
Out: 1

In: Consider next the compound CN1CCN(Cc2ccc(N/C(=C3\C(=O)Nc4cc(Cl)ccc43)c3ccc4c(c3)OCO4)cc2)CC1 in the same way.
Out: 2

In: Same read-out for CC(=O)N(CCN(C)C)c1ccc(N/C(=C2\C(=O)Nc3cc(F)ccc32)c2ccc3c(c2)OCCO3)cc1 ?
Out: 0.7

In: Continue with CN1CCN(CC(=O)N(C)c2ccc(N/C(=C3\C(=O)Nc4cc(Cl)ccc43)c3ccc4c(c3)OCO4)cc2)CC1
Out: 6

In: Moving on to the next compound: COC(=O)c1ccc2c(c1)NC(=O)/C2=C(\Nc1ccc(N(CCN(C)C)S(C)(=O)=O)cc1)c1ccc2c(c1)OCCO2 [(r)]
Out: 0.2
